Counter-ions that a name gives are not always drawn.
Entries with their measured IC50, system JAK3 (Homo sapiens (Human), UniProt P52333):
Form entry: value (µM) — number only.

- CC1(C)O[C@@H]2C[C@H]3[C@@H]4CCC5=CC(=O)C=C[C@]5(C)[C@@]4(F)[C@@H](O)C[C@]3(C)[C@]2(C(=O)COC(=O)CCC(=O)OCc2ccc([C@@H](CN)C(=O)Nc3ccc4cnccc4c3)cc2)O1: 30.1
- C[C@]12C=CC(=O)C=C1CC[C@@H]1[C@@H]2[C@@H](O)C[C@@]2(C)[C@H]1CC[C@]2(O)C(=O)COC(=O)C1CC1C(=O)OCc1ccc([C@@H](CN)C(=O)Nc2ccc3cnccc3c2)cc1 (stereo partly shown): 2.57
- C[C@@H]1C[C@H]2[C@@H]3CCC4=CC(=O)C=C[C@]4(C)[C@@]3(F)[C@@H](O)C[C@]2(C)[C@@]1(O)C(=O)COC(=O)C[C@H](N)C(=O)OCc1ccc([C@@H](CN)C(=O)Nc2ccc3cnccc3c2)cc1 [Example 83, trihydrochloride]: 7.73
- CC1(C)O[C@@H]2C[C@H]3[C@@H]4C[C@H](F)C5=CC(=O)C=C[C@]5(C)[C@@]4(F)[C@@H](O)C[C@]3(C)[C@]2(C(=O)COC(=O)CCC(=O)OCc2ccc([C@@H](CN)C(=O)Nc3ccc4cnccc4c3)cc2)O1: 17.7
- C[C@@H]1C[C@H]2[C@@H]3CCC4=CC(=O)C=C[C@]4(C)[C@@]3(F)[C@@H](O)C[C@]2(C)[C@@]1(O)C(=O)COC(=O)C1CC1C(=O)OCc1ccc([C@@H](CN)C(=O)Nc2ccc3cnccc3c2)cc1 (stereo partly shown): 11.6

Ask: Reported IC50 for JAK3 (Homo sapiens (Human), UniProt P52333), given C[C@@H]1C[C@H]2[C@@H]3CCC4=CC(=O)C=C[C@]4(C)[C@@]3(F)[C@@H](O)C[C@]2(C)[C@@]1(O)C(=O)COC(=O)c1ccc(C(=O)OCc2ccc([C@@H](CN)C(=O)Nc3ccc4cnccc4c3)cc2)cc1 [Example 66, dihydrochloride] ?
Reply: 43.2

Ask: Reported IC50 for JAK3 (Homo sapiens (Human), UniProt P52333), given C[C@@H]1C[C@H]2[C@@H]3CCC4=CC(=O)C=C[C@]4(C)[C@@]3(F)[C@@H](O)C[C@]2(C)[C@@]1(O)C(=O)COC(=O)CCC(=O)OCc1ccc([C@@H](CN)C(=O)Nc2ccc3cnccc3c2)cc1 ?
Reply: 21.4
